target: [IKZF2 ZF2]-[compound]-[CRBN/DDB1] ternary complex (Homo sapiens, UniProt Q96SW2+Q9UKS7); construct: IKZF2 ZF2; assay: AlphaLISA assay for off-target recruitment detection, IKZF2 ZF2; assay type: binding; details: 1 μM compound; normalized to Helios modulator; read-out: Normalized ternary complex response, IKZF2 ZF2
Sequence (Q9UKS7 140-162 limits assumed): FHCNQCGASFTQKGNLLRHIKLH
Sequence (Q96SW2 whole entry): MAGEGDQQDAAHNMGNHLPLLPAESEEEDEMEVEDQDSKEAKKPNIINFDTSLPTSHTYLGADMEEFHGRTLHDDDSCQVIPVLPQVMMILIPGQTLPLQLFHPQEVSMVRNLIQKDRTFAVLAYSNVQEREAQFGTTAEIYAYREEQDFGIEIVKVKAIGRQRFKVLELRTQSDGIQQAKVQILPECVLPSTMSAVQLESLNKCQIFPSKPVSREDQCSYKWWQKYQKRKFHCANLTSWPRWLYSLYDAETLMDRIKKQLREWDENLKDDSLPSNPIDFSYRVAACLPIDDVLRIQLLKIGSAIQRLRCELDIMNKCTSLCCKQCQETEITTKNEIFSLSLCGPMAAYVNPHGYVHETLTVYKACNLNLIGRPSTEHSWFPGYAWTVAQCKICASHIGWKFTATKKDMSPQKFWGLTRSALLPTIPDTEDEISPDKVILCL
Sequence (Q16531 whole entry partner): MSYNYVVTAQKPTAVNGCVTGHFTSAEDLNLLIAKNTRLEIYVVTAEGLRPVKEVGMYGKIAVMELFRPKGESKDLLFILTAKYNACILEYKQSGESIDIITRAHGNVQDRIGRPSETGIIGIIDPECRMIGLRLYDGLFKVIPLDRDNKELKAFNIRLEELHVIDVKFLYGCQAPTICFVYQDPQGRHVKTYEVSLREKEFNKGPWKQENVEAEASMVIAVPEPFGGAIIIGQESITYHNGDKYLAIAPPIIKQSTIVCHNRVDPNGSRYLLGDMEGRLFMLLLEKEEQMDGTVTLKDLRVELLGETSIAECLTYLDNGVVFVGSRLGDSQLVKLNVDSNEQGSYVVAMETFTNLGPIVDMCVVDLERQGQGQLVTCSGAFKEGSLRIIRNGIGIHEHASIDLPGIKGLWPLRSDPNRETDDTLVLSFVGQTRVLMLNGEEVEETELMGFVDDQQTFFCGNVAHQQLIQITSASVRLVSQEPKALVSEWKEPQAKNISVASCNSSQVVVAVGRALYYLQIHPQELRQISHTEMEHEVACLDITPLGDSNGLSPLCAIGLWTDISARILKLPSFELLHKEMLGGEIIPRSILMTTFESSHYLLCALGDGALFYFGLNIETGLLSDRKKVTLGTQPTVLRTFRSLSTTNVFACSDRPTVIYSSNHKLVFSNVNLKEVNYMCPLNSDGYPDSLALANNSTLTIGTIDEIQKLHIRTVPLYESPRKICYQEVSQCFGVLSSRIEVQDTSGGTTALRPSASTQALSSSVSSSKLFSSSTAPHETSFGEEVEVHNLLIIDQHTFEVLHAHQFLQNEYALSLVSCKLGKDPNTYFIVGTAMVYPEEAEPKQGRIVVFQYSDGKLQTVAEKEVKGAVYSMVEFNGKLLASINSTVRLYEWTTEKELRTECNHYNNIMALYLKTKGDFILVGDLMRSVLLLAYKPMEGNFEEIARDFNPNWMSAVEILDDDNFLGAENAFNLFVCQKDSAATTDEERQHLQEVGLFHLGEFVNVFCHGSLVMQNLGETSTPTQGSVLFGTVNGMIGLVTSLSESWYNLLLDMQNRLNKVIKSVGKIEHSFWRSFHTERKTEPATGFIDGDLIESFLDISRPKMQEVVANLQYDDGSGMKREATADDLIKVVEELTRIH
For each record, write down the corresponding activation at 1 µM.

Need activation at 1 µM, item Cc1ccc(NC(=O)C(C)Oc2ccc3cc(C4CCC(=O)NC4=O)c(C)nc3c2)cc1Cl (stereo not drawn)
< 10%

Need activation at 1 µM, item Cc1nc2cc(COC(=O)Nc3cc(C(F)(F)F)no3)ccc2cc1C1CCC(=O)NC1=O (stereo not drawn)
< 10%

Need activation at 1 µM, item Cc1nc2ccc(CNC(=O)C(=O)c3ccc(C(C)(C)C)cc3)cc2cc1C1CCC(=O)NC1=O (stereo not drawn)
10 to 25%

----------
target: CRBN/DDB1 protein complex (Homo sapiens); assay: CRBN displacement TR-FRET assay; details: Thalidomide-Red tracer, 6×His-CRBN/DDB1; read-out: CRBN binding Ki
For each record, write down the corresponding Ki.

Lookup: Ki / CRBN/DDB1 protein complex (Homo sapiens) / Cc1ccc(NC(=O)OCc2ccc3cc(C4CCC(=O)NC4=O)c(C)nc3c2)cc1Cl (stereo not drawn) [Compound 4]
500 to 1000 nM

Lookup: Ki / CRBN/DDB1 protein complex (Homo sapiens) / COc1cnc(NC(=O)OCc2ccc3cc(C4CCC(=O)NC4=O)c(C)nc3c2)cn1 (stereo not drawn) [Compound 59]
< 500 nM

Lookup: Ki / CRBN/DDB1 protein complex (Homo sapiens) / Cc1nc2cc(OC(C)C(=O)NC3CCCCC3)ccc2cc1C1CCC(=O)NC1=O (stereo not drawn) [Compound 36]
< 500 nM

Lookup: Ki / CRBN/DDB1 protein complex (Homo sapiens) / Cc1ccc(NC(=O)OCc2ccc3nc(C)c(N4CCC(=O)NC4=O)cc3c2)cc1Cl [Compound 29]
< 500 nM

Lookup: Ki / CRBN/DDB1 protein complex (Homo sapiens) / Cc1nc2cc(COC(=O)Nc3cc(C(C)(C)C)no3)ccc2cc1C1CCC(=O)NC1=O (stereo not drawn) [Compound 30]
500 to 1000 nM

Lookup: Ki / CRBN/DDB1 protein complex (Homo sapiens) / Cc1nc2ccc(COC(=O)NC3CCCCC3)cc2cc1N1CCC(=O)NC1=O [Compound 60]
500 to 1000 nM

----------
molecular target: [SALL4 ZF2]-[compound]-[CRBN/DDB1] ternary complex (Homo sapiens, UniProt Q96SW2+Q9UJQ4); construct: SALL4 ZF2; test: AlphaLISA assay for off-target recruitment detection, SALL4 ZF2; assay type: binding; settings: 1 μM compound; normalized to Lenalidomide; read-out: Normalized ternary complex response, SALL4 ZF2
Sequence (Q9UJQ4 410-432 limits assumed): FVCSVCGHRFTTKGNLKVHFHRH
Sequence (Q96SW2 whole entry): as the sequence (Q96SW2 whole entry) above
Sequence (Q16531 whole entry partner): as the sequence (Q16531 whole entry partner) above
value-type: activation at 1 µM

Need activation at 1 µM, item Cc1nc2cc(COC(=O)Nc3cccc(-c4ccccc4)c3)ccc2cc1C1CCC(=O)NC1=O (stereo not drawn) [Compound 46]
< 10%

Need activation at 1 µM, item Cc1nc2cc(COC(=O)Nc3cc(C(C)(C)C)no3)ccc2cc1N1CCC(=O)NC1=O [Compound 72]
< 10%

Need activation at 1 µM, item Cc1nc2cc(COC(=O)Nc3ccc(C(F)(F)F)c(Cl)c3)ccc2cc1C1CCC(=O)NC1=O (stereo not drawn) [Compound 18]
< 10%

----------
For each record, write down the corresponding DC50.
target: GSPT1-HiBiT protein in GSPT1-HiBiT HEK293 cells (Homo sapiens, UniProt P15170+Q96SW2); construct: endogenous in cells; host or cells: HEK293 (CRISPR/Cas9 knock-in of HiBiT at the GSPT1 locus); test: GSPT1 degradation assay using HiBiT system (Nano-Glo HiBiT lytic assay); assay type: cell-based; conditions: 6 hours treatment, read-out: HiBiT lytic assay Geomean absolute DC50
Sequence (P15170 whole entry): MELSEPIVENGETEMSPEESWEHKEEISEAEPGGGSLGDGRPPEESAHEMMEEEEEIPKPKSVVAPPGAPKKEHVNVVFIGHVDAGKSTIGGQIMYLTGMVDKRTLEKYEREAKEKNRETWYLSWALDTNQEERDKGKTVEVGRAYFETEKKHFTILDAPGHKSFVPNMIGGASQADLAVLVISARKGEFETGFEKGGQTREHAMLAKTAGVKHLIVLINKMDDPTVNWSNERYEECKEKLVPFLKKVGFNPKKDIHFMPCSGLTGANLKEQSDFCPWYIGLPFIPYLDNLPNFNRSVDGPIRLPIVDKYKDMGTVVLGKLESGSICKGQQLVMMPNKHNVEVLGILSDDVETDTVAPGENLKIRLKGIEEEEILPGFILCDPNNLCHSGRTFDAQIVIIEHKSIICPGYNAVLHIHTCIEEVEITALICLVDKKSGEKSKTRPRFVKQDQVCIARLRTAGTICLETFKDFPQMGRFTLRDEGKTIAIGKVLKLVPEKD
Sequence (Q96SW2 whole entry): as the sequence (Q96SW2 whole entry) above
Sequence (Q16531 whole entry partner): as the sequence (Q16531 whole entry partner) above

Need DC50, item Cc1nc2cc(COC(=O)Nc3ccc(C(F)(F)F)c(Cl)c3)ccc2cc1C1CCC(=O)NC1=O (centres unmarked)
10 to 50 nM

Need DC50, item `Cc1nc2ccc(CNC(=O)Nc3cc(C(C)(C)C)no3)cc2cc1N1CCC(=O)NC1=O`
10 to 50 nM

Need DC50, item Cc1ccc(NC(=O)OCc2ccc3c(C)c(C4CCC(=O)NC4=O)c(C)nc3c2)cc1Cl (centres unmarked)
< 10 nM

Need DC50, item [2H]C([2H])(OC(=O)Nc1cc(C(C)(C)C)no1)c1ccc2cc(C3CCC(=O)NC3=O)c(C)nc2c1 (centres unmarked)
< 10 nM

Need DC50, item `Cc1nc2cc(COC(=O)Nc3cc(C(C)(C)C)no3)ccc2cc1N1CCC(=O)NC1=O`
10 to 50 nM

----------
target: [GSPT1]-[compound of formula (I)]-[CRBN/DDB1] complex (Homo sapiens, UniProt P15170+Q96SW2); experiment: AlphaLISA ternary complex formation assay (GSPT1); format: binding; details: 0.5 h; 1 μM compound; normalized to reference compound CC-885; read-out: Normalized AlphaLISA ternary complex average signal at 1 μM molecule
For each record, write down the corresponding activation at 1 µM.

Need activation at 1 µM, item Cc1nc2cc(COC(=O)Nc3csc(-c4ccccc4)c3)ccc2cc1C1CCC(=O)NC1=O (stereo not drawn)
10 to 50%

Need activation at 1 µM, item `Cc1nc2ccc(CNC(=O)NC3CCCCC3)cc2cc1N1CCC(=O)NC1=O`
10 to 50%

Need activation at 1 µM, item Cc1nc2cc(COC(=O)Nc3ccc4c(c3)OCO4)ccc2cc1C1CCC(=O)NC1=O (stereo not drawn)
10 to 50%

Need activation at 1 µM, item `Cc1nc2cc(COC(=O)Nc3cc(C(C)(C)C)no3)ccc2cc1N1CCC(=O)NC1=O`
10 to 50%

Need activation at 1 µM, item Cc1ccc(NC(=O)OCc2cc3nc(C)c(C4CCC(=O)NC4=O)cc3cc2C)cc1Cl (stereo not drawn)
< 10%

Need activation at 1 µM, item `Cc1nc2cc(CNC(=O)Nc3cc(C(C)(C)C)no3)ccc2cc1N1CCC(=O)NC1=O`
10 to 50%

Need activation at 1 µM, item Cc1ncc(NC(=O)OCc2ccc3cc(C4CCC(=O)NC4=O)c(C)nc3c2)cc1Cl (stereo not drawn)
> 50%

Need activation at 1 µM, item Cc1nc2cc(COC(=O)Nc3ccc(Cl)c(Cl)c3)ccc2cc1C1CCC(=O)NC1=O (stereo not drawn)
10 to 50%

Need activation at 1 µM, item `Cc1nc2ccc(COC(=O)Nc3cc(C(C)(C)C)no3)cc2cc1N1CCC(=O)NC1=O`
> 50%

Need activation at 1 µM, item Cc1nc2ccc(CNC(=O)C(=O)c3ccc(C(C)(C)C)cc3)cc2cc1C1CCC(=O)NC1=O (stereo not drawn)
> 50%

Need activation at 1 µM, item Cc1ccc(Nc2c(NCc3ccc4cc(C5CCC(=O)NC5=O)c(C)nc4c3)c(=O)c2=O)cc1Cl (stereo not drawn)
10 to 50%

Need activation at 1 µM, item Cc1nc2cc(COC(=O)Nc3cc(OC(F)(F)F)ccc3F)ccc2cc1C1CCC(=O)NC1=O (stereo not drawn)
10 to 50%

Need activation at 1 µM, item Cc1ccc(NC(=O)OCc2ccc3cc(C4CCC(=O)NC4=O)c(C)nc3c2F)cc1Cl (stereo not drawn)
> 50%

Need activation at 1 µM, item Cc1nc2cc(COC(=O)Nc3ccc(-c4ccccc4)nc3)ccc2cc1C1CCC(=O)NC1=O (stereo not drawn)
10 to 50%

Need activation at 1 µM, item Cc1nc2cc(COC(=O)Nc3cc(C(C)(C)C)no3)ccc2cc1C1CCC(=O)NC1=O (stereo not drawn)
> 50%

Need activation at 1 µM, item Cc1nc2cc(COC(=O)Nc3cc(C(F)(F)F)n[nH]3)ccc2cc1C1CCC(=O)NC1=O (stereo not drawn)
> 50%

Need activation at 1 µM, item Cc1ccc(NC(=S)NCc2ccc3cc(C4CCC(=O)NC4=O)c(C)nc3c2)cc1Cl (stereo not drawn)
10 to 50%

Need activation at 1 µM, item Cc1ccc(NC(=O)OCc2ccc3cc(C4CCC(=O)NC4=O)c(C)nc3c2)c(Cl)c1Cl (stereo not drawn)
> 50%

Need activation at 1 µM, item Cc1nc2cc(COC(=O)Nc3ccc(N4CCOCC4)nc3)ccc2cc1C1CCC(=O)NC1=O (stereo not drawn)
> 50%

Need activation at 1 µM, item `Cc1ccc(NC(=O)OCc2ccc3nc(C)c(N4CCC(=O)NC4=O)cc3c2)cc1Cl`
10 to 50%

Need activation at 1 µM, item `Cc1ccc(NC(=O)OCc2ccc3cc(N4CCC(=O)NC4=O)c(C)nc3c2)cc1Cl`
10 to 50%

Need activation at 1 µM, item Cc1nc2cc(COC(=O)Nc3ccc(C(F)(F)F)c(Cl)c3)ccc2cc1C1CCC(=O)NC1=O (stereo not drawn)
10 to 50%

Need activation at 1 µM, item COc1cc(C)c(Cl)cc1NC(=O)OCc1ccc2cc(C3CCC(=O)NC3=O)c(C)nc2c1 (stereo not drawn)
> 50%

Need activation at 1 µM, item Cc1ccc(NC(=O)OCc2ccc3c(C)c(C4CCC(=O)NC4=O)c(C)nc3c2)cc1Cl (stereo not drawn)
10 to 50%

Need activation at 1 µM, item Cc1nc2cc(COC(=O)Nc3ccc(C(C)(C)C)c(Cl)c3)ccc2cc1C1CCC(=O)NC1=O (stereo not drawn)
10 to 50%

Need activation at 1 µM, item `Cc1ccc(NC(=O)NCc2ccc3nc(C)c(N4CCC(=O)NC4=O)cc3c2)cc1Cl`
10 to 50%

Need activation at 1 µM, item COc1ccc(NC(=O)OCc2ccc3cc(C4CCC(=O)NC4=O)c(C)nc3c2)nn1 (stereo not drawn)
10 to 50%
